src = patent US8999956B2

system: Alternaria solani; experiment: In vivo preventive test on Alternaria solani (tomato); conditions: 500 ppm of active ingredient, evaluated 7 days after inoculation
Measured Efficacy, listed per entry.
Numeric answer only, unit % assumed.

1. Cn1nc(C(F)F)c(C(=S)N(C[Si](C)(C)Cc2ccccc2)C2CC2)c1F ... 95
2. CC(C)CC(C)C1CCCC1NC(=O)c1c(C(F)F)nn(C)c1Cl (single isomer, unassigned) [Example 313] ... 80
3. Cn1nc(C(F)F)c(C(=O)NC2CCCCC2CCC(C)(C)C)c1F (single isomer, unassigned) [Example 358] ... 100
4. CC(CSc1ccc(Cl)cc1Cl)NC(=O)c1c(C(F)F)nn(C)c1F (centres unmarked) ... 95
5. Cn1nc(C(F)F)c(C(=O)NCCOc2ccc(Cl)cc2)c1F ... 90
6. CC(COc1ccc(Cl)cc1Cl)NC(=O)c1c(C(F)F)nn(C)c1Cl (centres unmarked) ... 90
7. Cn1nc(C(F)F)c(C(=O)NC(C)(C)CCc2cc(Cl)ccc2Cl)c1F ... 95
8. CC(CCc1c(Cl)cc(Cl)cc1Cl)N(C(=O)c1c(C(F)F)nn(C)c1F)C1CC1 (centres unmarked) ... 100

Which measured Efficacy value corresponds to CN(C(=O)c1c(C(F)F)nn(C)c1Cl)C(CSCc1ccccc1)C1CC1 (centres unmarked) ?
70

Follow-up entry: Cc1cccc(C)c1CC(C)CNC(=O)c1c(C(F)F)nn(C)c1F (racemic)
80

Follow-up entry: CC(COc1ccc(Cl)cc1Cl)N(C(=O)c1c(C(F)F)nn(C)c1Cl)C1CC1 (centres unmarked)
100

Follow-up entry: "Cn1nc(C(F)F)c(C(=O)NC(C)(C)CCc2cccc(C(F)(F)F)c2)c1F"
80

Follow-up entry: CC(C)C(CCc1ccc(Cl)cc1)NC(=O)c1c(C(F)F)nn(C)c1F (centres unmarked)
100

Follow-up entry: Cn1nc(C(F)F)c(C(=O)NC2CCCCC2CCC(C)(C)C)c1F (single isomer, unassigned) [Example 357]
100

Follow-up entry: CC(C)OC1CCCC(NC(=O)c2c(C(F)F)nn(C)c2F)C1 (centres unmarked)
95

Follow-up entry: "Cn1nc(C(F)F)c(C(=O)N(C[Si](C)(C)Cc2ccc(Cl)cc2Cl)C2CC2)c1F"
100

Follow-up entry: CC1CC(N(C(=O)c2c(C(F)F)nn(C)c2F)C2CC2)CC(C)(C)C1 (centres unmarked)
90

----------
system: Alternaria solani; test: In vivo preventive test on Alternaria solani (tomato); details: 500 ppm of active ingredient, evaluated 7 days after inoculation
Measured Efficacy, listed per entry.
Numeric answer only, unit % assumed.

Study these solved cases before continuing.
1) CC(CNC(=O)c1c(C(F)F)nn(C)c1Cl)Cc1cc(Cl)ccc1Cl (stereo not drawn) ... 95
2) CN(C(=O)c1c(C(F)F)nn(C)c1F)C(COc1ccccc1)C1CC1 (stereo not drawn) ... 90
3) Cn1nc(C(F)F)c(C(=O)NCCCc2ccc(Cl)cc2Cl)c1F ... 90

Which measured Efficacy value corresponds to CC(CCc1cc(Cl)ccc1Cl)NC(=O)c1c(C(F)F)nn(C)c1Cl (stereo not drawn) ?
95

Follow-up entry: CC(C)CC(C)C1CCCC1NC(=O)c1c(C(F)F)nn(C)c1F (single isomer, unassigned) [Example 318]
90

Follow-up entry: "Cn1nc(C(F)F)c(C(=O)NC(C)(C)CCc2cc(Cl)cc(Cl)c2)c1Cl"
95

Follow-up entry: Cn1nc(C(F)F)c(C(=O)N(CC2CCCCC2c2ccccc2)C2CC2)c1F (stereo not drawn)
100

Follow-up entry: CC(C)CC1CCCCC1NC(=O)c1c(C(F)F)nn(C)c1F (stereo not drawn)
100

Follow-up entry: CC(C)CCC1CCCC1NC(=O)c1c(C(F)F)nn(C)c1Cl (stereo not drawn)
100

Follow-up entry: CC(CCc1c(Cl)cc(Cl)cc1Cl)N(C(=S)c1c(C(F)F)nn(C)c1F)C1CC1 (stereo not drawn)
95

Follow-up entry: Cn1nc(C(F)F)c(C(=O)NC2CCCC2CCC(C)(C)C)c1Cl (stereo not drawn)
100

Follow-up entry: CC(CNC(=O)c1c(C(F)F)nn(C)c1F)Cc1ccc(Cl)c(Cl)c1 (racemic)
95
